tested on: SK-N-SH; test: Cytotoxicity against human SK-N-SH cells after 48 hrs by MTT assay; assay type: functional, cell-based
readout-kind: pIC50
Please keep in mind that pIC50 is minus log10 of the molar concentration; only the number is needed.

IN: Reported pIC50 for SK-N-SH, given COc1ccc(/C=C/c2cc(OC)c(OC)c(OC)c2-c2ccc(F)c(C)c2)cc1 ?
OUT: 4.72

IN: Also need C=C(c1ccc(Cl)cc1)c1cc(OC)c(OC)c(OC)c1-c1ccccc1 , thanks.
OUT: 4.60

IN: Also need COc1cc(/C=C/c2ccc(C)cc2)c(-c2ccccc2)c(OC)c1OC , thanks.
OUT: 4.51

IN: Also need COc1ccc(/C=C/c2cc(OC)c(OC)c(OC)c2-c2ccc(Cl)cc2)cc1 , thanks.
OUT: 4.82

IN: Also need C=C(c1ccc(C)cc1)c1cc(OC)c(OC)c(OC)c1-c1ccccc1 , thanks.
OUT: 4.51

###

species: Bos taurus; assay: Inhibition of bovine brain tubulin polymerization at 5 uM by fluorescence assay
Recorded inhibition determines the label; the label ranges are lo: < 30%; mid: ≥ 30% and < 50%; hi: ≥ 50%

IN: Class (by measured inhibition) for COc1ccc(/C=C/c2cc(OC)c(OC)c(OC)c2-c2ccc(Cl)cc2)cc1
OUT: lo

IN: Also need C=C(c1ccc(C)cc1)c1cc(OC)c(OC)c(OC)c1-c1ccccc1 , thanks.
OUT: mid

IN: Also need C=C(c1ccc(OC)cc1)c1cc(OC)c(OC)c(OC)c1-c1ccc(OC)cc1 , thanks.
OUT: mid

IN: Also need COc1ccc(/C=C/c2cc(OC)c(OC)c(OC)c2-c2ccc(F)c(C)c2)cc1 , thanks.
OUT: mid

IN: Also need COc1ccc(/C=C/c2cc(OC)c(OC)c(OC)c2-c2ccc(F)c(F)c2)cc1 , thanks.
OUT: hi

IN: Also need C=C(c1ccc(OC)cc1)c1cc(OC)c(OC)c(OC)c1-c1ccc2ccccc2c1 , thanks.
OUT: lo

IN: Also need COc1ccc(/C=C/c2cc(OC)c(OC)c(OC)c2-c2ccc(OC)cc2)cc1 , thanks.
OUT: lo

IN: Also need C=C(c1ccccc1)c1cc(OC)c(OC)c(OC)c1-c1ccccc1 , thanks.
OUT: mid

IN: Also need COc1ccc(/C=C/c2cc(OC)c(OC)c(OC)c2-c2ccccc2)cc1 , thanks.
OUT: lo

IN: Also need C=C(c1ccc(OC)cc1)c1cc(OC)c(OC)c(OC)c1-c1ccc(Cl)cc1 , thanks.
OUT: mid

IN: Also need C=C(c1ccc(OC)cc1)c1cc(OC)c(OC)c(OC)c1-c1ccc(F)c(F)c1 , thanks.
OUT: hi

IN: Also need COc1cc(/C=C/c2ccc(C)cc2)c(-c2ccccc2)c(OC)c1OC , thanks.
OUT: mid

IN: Also need C=C(c1ccc(OC)cc1)c1cc(OC)c(OC)c(OC)c1-c1ccc(C(C)(C)C)cc1 , thanks.
OUT: lo

IN: Also need COc1ccc(/C=C/c2cc(OC)c(OC)c(OC)c2-c2ccc(OC)c(OC)c2)cc1 , thanks.
OUT: mid

IN: Also need C=C(c1ccc(OC)cc1)c1cc(OC)c(OC)c(OC)c1-c1ccc2c(c1)OCO2 , thanks.
OUT: hi

IN: Also need COc1ccc(/C=C/c2cc(OC)c(OC)c(OC)c2-c2ccc3c(c2)OCO3)cc1 , thanks.
OUT: hi

IN: Also need COc1ccc(/C=C/c2cc(OC)c(OC)c(OC)c2-c2ccc(C(C)(C)C)cc2)cc1 , thanks.
OUT: mid

IN: Also need COc1cc(/C=C/c2ccccc2)c(-c2ccccc2)c(OC)c1OC , thanks.
OUT: mid

###

test system: HeLa; experiment: Cytotoxicity against human HeLa cells after 48 hrs by MTT assay; assay type: functional, cell-based
For each of the compounds below, state its IC50.
Answer in µM, number only, no unit symbol.

IN: Param item = C=C(c1ccc(OC)cc1)c1cc(OC)c(OC)c(OC)c1-c1ccccc1 ; retrieve measured IC50.
OUT: 11

IN: Also need C=C(c1ccc(C(F)(F)F)cc1)c1cc(OC)c(OC)c(OC)c1-c1ccccc1 , thanks.
OUT: 32

IN: Also need COc1cc(/C=C/c2ccccc2)c(-c2ccccc2)c(OC)c1OC , thanks.
OUT: 89

IN: Also need COc1ccc(/C=C/c2cc(OC)c(OC)c(OC)c2-c2ccc(OC)cc2)cc1 , thanks.
OUT: 19

IN: Also need COc1ccc(/C=C/c2cc(OC)c(OC)c(OC)c2-c2ccc3c(c2)OCO3)cc1 , thanks.
OUT: 8.7

IN: Also need COc1ccc(/C=C/c2cc(OC)c(OC)c(OC)c2-c2ccc(F)c(C)c2)cc1 , thanks.
OUT: 17

IN: Also need C=C(c1ccccc1)c1cc(OC)c(OC)c(OC)c1-c1ccccc1 , thanks.
OUT: 42

IN: Also need C=C(c1ccc(OC)cc1)c1cc(OC)c(OC)c(OC)c1-c1ccc2c(c1)OCO2 , thanks.
OUT: 5.4

IN: Also need C=C(c1ccc(OC)cc1)c1cc(OC)c(OC)c(OC)c1-c1ccc(Cl)cc1 , thanks.
OUT: 30

IN: Also need COc1ccc(/C=C/c2cc(OC)c(OC)c(OC)c2-c2ccc(F)c(F)c2)cc1 , thanks.
OUT: 9.2

IN: Also need COc1cc(/C=C/c2ccc(C)cc2)c(-c2ccccc2)c(OC)c1OC , thanks.
OUT: 45

IN: Also need COc1ccc(/C=C/c2cc(OC)c(OC)c(OC)c2-c2ccc(OC)c(OC)c2)cc1 , thanks.
OUT: 45

IN: Also need C=C(c1ccc(OC)cc1)c1cc(OC)c(OC)c(OC)c1-c1ccc(OC)cc1 , thanks.
OUT: 72

IN: Also need COc1ccc(/C=C/c2cc(OC)c(OC)c(OC)c2-c2ccc3ccccc3c2)cc1 , thanks.
OUT: 13

IN: Also need C=C(c1ccc(Cl)cc1)c1cc(OC)c(OC)c(OC)c1-c1ccccc1 , thanks.
OUT: 34

IN: Also need C=C(c1ccc(OC)cc1)c1cc(OC)c(OC)c(OC)c1-c1ccc(F)c(F)c1 , thanks.
OUT: 5.9

IN: Also need COc1ccc(/C=C/c2cc(OC)c(OC)c(OC)c2-c2ccc(C(C)(C)C)cc2)cc1 , thanks.
OUT: 28

IN: Also need COc1ccc(/C=C/c2cc(OC)c(OC)c(OC)c2-c2ccc(Cl)cc2)cc1 , thanks.
OUT: 49

IN: Also need C=C(c1ccc(OC)cc1)c1cc(OC)c(OC)c(OC)c1-c1ccc2ccccc2c1 , thanks.
OUT: 35

IN: Also need C=C(c1ccc(OC)cc1)c1cc(OC)c(OC)c(OC)c1-c1ccc(C(C)(C)C)cc1 , thanks.
OUT: 39

IN: Also need C=C(c1ccc(C)cc1)c1cc(OC)c(OC)c(OC)c1-c1ccccc1 , thanks.
OUT: 28

IN: Also need COc1ccc(/C=C/c2cc(OC)c(OC)c(OC)c2-c2ccccc2)cc1 , thanks.
OUT: 26

###

test system: SK-N-SH; assay: Cytotoxicity against human SK-N-SH cells after 48 hrs by MTT assay; assay type: functional, cell-based
pIC50: −log10 of the molar value.
Kind request: treat 5 as inclusive, so pIC50 at 5 or higher is YES, anything lower is NO.

IN: State whether the measured pIC50 reaches 5, counting equality as reaching it, for C=C(c1ccc(OC)cc1)c1cc(OC)c(OC)c(OC)c1-c1ccc2ccccc2c1
OUT: YES

IN: Also need C=C(c1ccc(OC)cc1)c1cc(OC)c(OC)c(OC)c1-c1ccc2c(c1)OCO2 , thanks.
OUT: YES

IN: Also need C=C(c1ccc(OC)cc1)c1cc(OC)c(OC)c(OC)c1-c1ccccc1 , thanks.
OUT: NO

IN: Also need C=C(c1ccccc1)c1cc(OC)c(OC)c(OC)c1-c1ccccc1 , thanks.
OUT: NO

IN: Also need C=C(c1ccc(OC)cc1)c1cc(OC)c(OC)c(OC)c1-c1ccc(OC)cc1 , thanks.
OUT: NO

IN: Also need COc1ccc(/C=C/c2cc(OC)c(OC)c(OC)c2-c2ccc3ccccc3c2)cc1 , thanks.
OUT: NO

IN: Also need C=C(c1ccc(OC)cc1)c1cc(OC)c(OC)c(OC)c1-c1ccc(C(C)(C)C)cc1 , thanks.
OUT: NO

IN: Also need COc1ccc(/C=C/c2cc(OC)c(OC)c(OC)c2-c2ccc(OC)c(OC)c2)cc1 , thanks.
OUT: NO

IN: Also need COc1cc(/C=C/c2ccccc2)c(-c2ccccc2)c(OC)c1OC , thanks.
OUT: NO

IN: Also need C=C(c1ccc(OC)cc1)c1cc(OC)c(OC)c(OC)c1-c1ccc(Cl)cc1 , thanks.
OUT: NO

IN: Also need COc1ccc(/C=C/c2cc(OC)c(OC)c(OC)c2-c2ccc(F)c(F)c2)cc1 , thanks.
OUT: YES

IN: Also need COc1ccc(/C=C/c2cc(OC)c(OC)c(OC)c2-c2ccc(OC)cc2)cc1 , thanks.
OUT: NO

IN: Also need COc1ccc(/C=C/c2cc(OC)c(OC)c(OC)c2-c2ccc(C(C)(C)C)cc2)cc1 , thanks.
OUT: NO

Measured values drawn from ChEMBL document CHEMBL2311256 for this set.
